Measured % inhibition of gametocyte viability accompanies every entry in the list below.
- System: Plasmodium falciparum NF54 stage IV/V gametocytes
- Method Summary: % inhibition of gametocyte viability (luciferase reporter); higher = more inhibition
- Condition Parameters: 5 µM; 48 h

See these solved cases before continuing.
Molecule | % inhibition of gametocyte viability
CN(C/C=C/C#CC(C)(C)C)Cc1cccc2ccccc12 | < 0%
COc1ccc(C)cc1NC(=O)c1ccc(S(=O)(=O)N2CCCCC2)cc1 | < 0%
N#Cc1c(F)c(Cl)c(NCc2ccccc2)c(C#N)c1F | 52.5%
COc1ccc(CNC(=O)C(NS(=O)(=O)c2ccc3nc(C)sc3c2)C(C)C)cc1 (stereo not given) | < 0%
COc1cc2c(O)c3c(c(-c4ccc5c(c4)OCO5)c2cc1OC)C(=O)OC3 | < 0%

// query Quickly give me recorded % inhibition of gametocyte viability for COc1ccc(C[C@@H](C)[C@@H](C)Cc2ccc(OC)c(OC)c2)cc1OC
// result < 0%

// query Quickly give me recorded % inhibition of gametocyte viability for CNCC(=O)OCc1cccnc1N(C)C(=O)OC(C)[n+]1cnn(C[C@](O)(c2cc(F)ccc2F)[C@@H](C)c2nc(-c3ccc(C#N)cc3)cs2)c1 (stereo not given in full)
// result < 0%

// query Quickly give me recorded % inhibition of gametocyte viability for CC[C@@]1(O)C(=O)OCc2c1cc1n(c2=O)Cc2cc3c(CN(C)C)c(O)ccc3nc2-1
// result 5.33%

// query Quickly give me recorded % inhibition of gametocyte viability for Nc1nc(N)c2c(Sc3ccccc3)cccc2n1
// result < 0%

// query Quickly give me recorded % inhibition of gametocyte viability for O=C(CP(=O)(O)O)NCCc1cccc(Oc2ccccc2)c1
// result < 0%
